Where do the numbers come from? From PubChem BioAssay (Tox21).

run.description: qHTS assay for small molecules that induce genotoxicity in human embryonic kidney cells expressing luciferase-tagged ATAD5 (AID 651632); also: % is scaled to controls: 0 for no effect and ±100 for the full control effect; nearly all actives have a fitted effect of over 15% in size
conditions: HEK293T ATAD5-luciferase induction, 16 h; series mostly up to 83.3 µM
Inconclusive results are not listed. Active and inactive are the calls of the source. Calls follow the shape of the dose curve; as a rule, active = well fitted activation curve with a large enough effect in the repeat runs; inconclusive = weak or mixed curves; inactive = no such curve, though single readings can be large or run the other way.
measured.quantity: outcome

Please review the entries below; each comes with its answer.
OCC(CBr)(CBr)CBr :: inactive
Cc1c[nH]c(=S)[nH]c1=O :: inactive
O=C1Nc2ccc([N+](=O)[O-])cc2C1=O :: inactive
C1CSCCS1 :: inactive

Ask | Reported outcome, compound CC/C=C\CCOC(=O)CCCCC : ____
Reply | inactive

---

run.description: A CellTox Green Cytotoxicity Assay to monitor cytotoxicity in HepG2 cells - 32 hour (AID 1224883); also: % is scaled to controls: 0 for no effect and ±100 for the full control effect; nearly all actives have a fitted effect of over 50% in size
conditions: CellTox Green fluorescence; series mostly up to 76.8 µM
Inconclusive results are not listed. Active and inactive are the calls of the source. The call rests on the fitted dose curve; in most records, active means well fitted activation curve with a large enough effect in the repeat runs; inconclusive means weak or mixed curves; inactive means flat fitted curve, though single readings scatter.
measured.quantity: cytotoxicity increase

Please review the entries below; each comes with its answer.
Cc1c(C(=O)NCCO)[n+](=O)c2ccccc2n1[O-] :: inactive
CCOC(=O)CS :: inactive
C=CCc1cc(OC)c(O)c(C(=O)NCCO)c1 :: inactive
C=O :: inactive
O=CCCc1ccccc1 :: inactive
COc1ccccc1OCC(O)COC(N)=O (stereo not drawn) :: inactive
ClC(Cl)Cl :: inactive
CC(C)OC(C)C :: inactive
O=c1oc2c(O)c(O)cc3c(=O)oc4c(O)c(O)cc1c4c23 :: 19.5% [at 15.8 µM] (inactive)
CCOC(=O)c1cc(=O)c2c(OCC(COc3cccc4oc(C(=O)OCC)cc(=O)c34)OC(=O)[C@@H](N)CCCCN)cccc2o1 :: inactive

Ask | Reported cytotoxicity increase, compound Cc1ccc([N+](=O)[O-])c(N)c1 : ____
Reply | inactive

Ask | Reported cytotoxicity increase, compound CCCCNc1ccc(C(=O)OCCN(CC)CC)cc1 : ____
Reply | inactive

Ask | Reported cytotoxicity increase, compound CCNCCO : ____
Reply | inactive
